Test system: B16 melanoma
measurement description: Antitumor effect against in vivo murine B16 melanoma
Set-up: species or system mice
condition summary: 2 mg/kg/day, QD 1→9 ip
experimental readout: MST (% T/C)
Provide only the numeric value, understood in % T/C.

Report measured MST (% T/C); entry is CCCCCCCCCC=CC=CC(=O)NC(C(=O)NC1CC(O)CCNC(=O)C=CC(C)NC1=O)C(C)O (centres unmarked) [BU-2867T C, reference compound]
132

For the molecule CCCCCCCCCCCCCC(=O)N[C@H](C(=O)NC1CC(O)CCNC(=O)/C=C/C(C)NC1=O)[C@@H](C)O (some centres unmarked) , give its measured MST (% T/C) value.
124

Please report MST (% T/C) for the following molecule: CCCCCCCCCCCC(=O)N[C@H](C(=O)NC1CC(O)CCNC(=O)/C=C/C(C)NC1=O)[C@@H](C)O (some centres unmarked)
139

----------
Test system: P388 leukemia
measurement description: Antitumor effect against in vivo murine transplantable P388 leukemia
Set-up: species or system mice
condition summary: 1 mg/kg/day, QD 1→9 ip
experimental readout: MST (% T/C)
Numbers only; they are read as % T/C.

Give reported MST (% T/C) value for CCCCCC=CCCC=CC=CC(=O)NC(C(=O)NC1CC(O)CCNC(=O)C=CC(C)NC1=O)C(C)O (stereo not shown) [BU-2867T B, reference compound]
170

Specify MST (% T/C) for CCCCCCCCCCCC(=O)N[C@H](C(=O)NC1CC(O)CCNC(=O)/C=C/C(C)NC1=O)[C@@H](C)O (stereo partly shown) [Example 1, n-Dodecanoyl-III] and stop.
150

Please list MST (% T/C) recorded for the molecule CCCCCCCC=CC=CC(=O)NC(C(=O)NC1CC(O)CCNC(=O)C=CC(C)NC1=O)C(C)O (stereo not shown) [BU-2867T A, reference compound]
190

Quick one: give measured MST (% T/C) for CCCCCCCCCC=CC=CC(=O)NC(C(=O)NC1CC(O)CCNC(=O)C=CC(C)NC1=O)C(C)O (stereo not shown) [BU-2867T C, reference compound]
170
